// reported cAMP release, % activity, 1 nM for each item listed
target: human GLP-1 receptor (human, UniProt P43220 24-463); experiment: cell-based or functional assay
Sequence (P43220 24-463): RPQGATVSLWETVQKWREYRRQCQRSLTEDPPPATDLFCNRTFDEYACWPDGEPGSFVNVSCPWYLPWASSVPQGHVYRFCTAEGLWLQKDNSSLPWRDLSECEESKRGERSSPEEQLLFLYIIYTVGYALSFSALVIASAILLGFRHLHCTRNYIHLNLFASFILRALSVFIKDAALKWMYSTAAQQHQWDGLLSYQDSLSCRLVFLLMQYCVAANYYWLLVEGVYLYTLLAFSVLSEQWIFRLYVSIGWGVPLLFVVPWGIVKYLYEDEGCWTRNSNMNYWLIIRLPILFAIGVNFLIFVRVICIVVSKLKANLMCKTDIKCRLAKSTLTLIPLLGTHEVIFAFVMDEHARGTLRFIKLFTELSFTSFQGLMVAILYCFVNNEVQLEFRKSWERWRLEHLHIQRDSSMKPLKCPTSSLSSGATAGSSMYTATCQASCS
Starred links: 1 amine or outer side, 2 acyl side, 3 side chain; linkers in the order of their positions; H or OH if unused. Non-standard residues stand in square brackets, D forms with d. No end group written: not given here. *: point of attachment. NMe2F‑APPA = N-methyl-2-amino-5-(2-fluorophenyl)pentanoic acid, CN([C@@H](CCCc1ccccc1F)C(=O)[*:2])[*:1]; 2Cl,4OMe‑APPA = 2-amino-5-(2-chloro-4-methoxyphenyl)pentanoic acid; Bip(2'-Et-4'-OMe) = CCc1cc(OC)ccc1-c1ccc(C[C@H](N)C(=O)O)cc1; 2F‑APPA = 2-amino-5-(2-fluorophenyl)pentanoic acid; αMePhe(2-F) = C[C@](N)(Cc1ccccc1F)C(=O)O; NMeBip(OMe) = N-methylated Bip(OMe); hhPhe = N[C@@H](CCCc1ccccc1)C(=O)O; aThr = C[C@H](O)[C@H](N)C(=O)O; CNB = not defined here; Aib = CC(C)(N)C(=O)O; Moc = COC(=O)*
Answer format: numeric, % implied, no suffix.

- Moc-H[Aib]QG[aThr][αMePhe(2-F)][aThr]SD[NMeBip(OMe)][NMe2F‑APPA] [Seq. ID. No. 140: CH3OCO-H-Aib-QG-T(allo)-(α-Me-2F-Phe)-T(allo)-SD-((NMe)Bip(OMe))-((NMe)(2F-APPA))]: 51
- H[Aib][CNB]G[aThr][αMePhe(2-F)][aThr]SD[Bip(2'-Et-4'-OMe)][2F‑APPA] (reading uncertain; also: thioamide bonds between residues 9-10 and 10-11) [Seq. ID. No. 180: H-Aib-(CNB)-G-T(allo)-(α-Me-2F-Phe)-T(allo)-SD-(C═S)-Bip(OMe)-(C═S)-(2F-APPA)]: 40
- Moc-H[Aib]QG[aThr][αMePhe(2-F)][aThr]SD[Bip(2'-Et-4'-OMe)][hhPhe] (also: reduced (CH2) bonds between 9-10 and 10-11) [Seq. ID. No. 198: CH3OCO-H-Aib-QG-T(allo)-(α-Me-2F-Phe)-T(allo)-SD-(CH2)-Bip(OMe)-(CH2)-(APPA)]: 82

--- query ---
IN: Request the reported cAMP release, % activity, 1 nM associated with H[Aib]QGTFTSD[Bip(2'-Et-4'-OMe)][2Cl,4OMe‑APPA] [Seq. ID. No. 68: H-Aib-QGTFTSD-Bip(OMe)-(2Cl, 4OMe-APPA)]
OUT: 39
